assayed-system: hCD36ecto (CD36ecto; human CD36 ectodomain) (Homo sapiens, UniProt P16671)
Sequence (P16671 30-439 limits assumed): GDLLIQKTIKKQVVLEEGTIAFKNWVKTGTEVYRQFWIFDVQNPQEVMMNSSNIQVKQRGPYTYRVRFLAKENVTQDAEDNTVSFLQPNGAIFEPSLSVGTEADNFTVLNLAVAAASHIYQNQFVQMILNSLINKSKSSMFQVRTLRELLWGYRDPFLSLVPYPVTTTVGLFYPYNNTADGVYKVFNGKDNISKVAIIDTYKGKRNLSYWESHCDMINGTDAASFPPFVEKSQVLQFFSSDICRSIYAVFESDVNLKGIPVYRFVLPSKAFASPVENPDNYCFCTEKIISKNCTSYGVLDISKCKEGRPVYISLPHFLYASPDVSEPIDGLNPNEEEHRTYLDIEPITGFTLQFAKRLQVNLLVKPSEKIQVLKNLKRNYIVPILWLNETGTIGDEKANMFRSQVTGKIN
measurement-description: isothermal titration calorimetry
endpoint-name: Kd (µM)

| molecule-smiles | reported-value |
| --- | --- |
| C=CC1=C(C)C2=Cc3c(C=C)c(C)c4[n]3[Fe]([Cl])[n]3c(c(C)c(CCC(=O)O)c3=CC3=NC(=C4)C(C)=C3CCC(=O)O)=CC1=N2 | 1.26 |
